PROTOCOL NOTES: yeast display, Sf9 membrane polyspecificity reagent, FACS + sequencing; frameworks hold sequencing errors
PROPERTY LABEL: polyreactivity (PSR sort gate)

See these solved cases before continuing.
QUERY SEQUENCE | polyreactivity (PSR sort gate)
QVQLVESGGGIVQAGGSLRLSCAASGSTLHSYALGWYRQAPGKERELVAAISFRGGSTYADSVKGRFTISRDNAKNTVYVQMNSLKPEDTAVYYCATRRTRADWYIVGYDYWGQGTQVTVSS | low polyreactivity
QVQLVESGGGLVQAGGSLRLSCAASGRIFGFYVMGWYRQAPGKERELVAAISSRGGSTYYADSVKGRFTISRDNAKNTVYLQMNSLKPEDTAVYYCAASVYREYYDNDDYWGQGTQVTVSS | high polyreactivity
QVQLVESGGGLVQAGGSLRLSCAASGRTFPFNTMGWYRQAPGKERELVARISSGGSTYYADSVKGRFRISRDNAKNTVYLQMNSLKPEDTAVYYCATRYRYYSRLYDYWGQGTQVTVSS | high polyreactivity
QVQLVESGGGLVQAGGSLRLSCAASGSIFAGNTMGWYRQAPGKEREFVASIRSSSGSTYYADSVKGRFTISRDNAKNTVYLQMNSLKPEDTAVYYCAARVYHYREFWVNYWGHGTQVTVSS | high polyreactivity
QVQLEESGGGLVQAGGSLRLSCAASGNIFSLNGMGRYRQAPGKEREFVAAITWSVGSTYYADSVKGRFSISRDNAKKTVYLQMNSLKPEDTAVYYCAATVSDLYKNEYYYWGQGTQVTVSS | low polyreactivity

Problem: # get_value(readout='polyreactivity (PSR sort gate)', item= QVQLVESGGGLVQAGGSLRLSCAASGSTFRGYAMGWYRQAPGKERELVAAISRADITNYADSVKGRFTISRDNAKNTVYLQMNSLKPEDTAVYYCNAGVGARESDYWGQGTQVTVSS )
Solution: low polyreactivity

Problem: # get_value(readout='polyreactivity (PSR sort gate)', item= QVQLVESGGGLVQAGGSLRLSCAASGYTFYYYAMGWYRQAPGKERELVAGISGRGGSTYYADSVKGRFTISRDNAKNTVYLQMNSLKPEDTAVYYCAATSPRAGTRRYEYWGQGTQVTVSS )
Solution: high polyreactivity

Problem: # get_value(readout='polyreactivity (PSR sort gate)', item= QVQLVETGGGLVQAGGSLRLSSAASGSTFRDYDMGWYRQARGKERELVAAISLSGGRTHYADSVKGRFTISRDNAKNTVYLQMNSLKPEDTAVYYCAARNSGPVQYYYWGQGTHVTVSS )
Solution: low polyreactivity

Problem: # get_value(readout='polyreactivity (PSR sort gate)', item= QVQLVESGGGLVQAGGSLRLSCAASGSIFYYYAMGWSRQAPGKEREFVAAIRESGGSTYYADSVKGSFTISRDNAKNTVYLQMNSLKAEDTAVYYCAVRRPRRNYNYPYDYWGQGTQVTVSS )
Solution: low polyreactivity

Problem: # get_value(readout='polyreactivity (PSR sort gate)', item= QVQLVEAGGGLDQPGGSLRLSCAASGSTFYVNTRRWYIQAPGQELELVAAISSTGSSTYFADSVKGRFTISRDNAKNTVYLQMNSLKPEDTAVYYCAAESYRWWYLYDYYYWGQGTQVTVSS )
Solution: high polyreactivity

---

PROTOCOL NOTES: yeast display, Sf9 membrane polyspecificity reagent, FACS + sequencing; frameworks hold sequencing errors

QUERY SEQUENCE | polyreactivity (PSR sort gate)
LVQVVESGGGLVQAGGSLGLSCAASGRIFRDYAMGWYRPATGKERELVAAISWSTVHTYYADSVKGRFTISRDNAKNTVYLQMNCLKPEDTAVYYCAVDRPGLTYYDYDYWGQGTQVTVSS | low polyreactivity
QVQLVESGGGLVQAGGSLRLSCAASGSIICVNAMGWYRQATGKERELVAAISSTGGSTYYADSVKGRFTISRDNAKNTVYLQMNSLKPEDTAVYYCNTDYSKSIGDGYAGFDYWGQGTQVTVSS | low polyreactivity
